Below: a set of entries, each annotated with reported inhibition.
Target: Proteinase-activated receptor 1 (Homo sapiens) (UniProt P25116)
Sequence (P25116 whole entry): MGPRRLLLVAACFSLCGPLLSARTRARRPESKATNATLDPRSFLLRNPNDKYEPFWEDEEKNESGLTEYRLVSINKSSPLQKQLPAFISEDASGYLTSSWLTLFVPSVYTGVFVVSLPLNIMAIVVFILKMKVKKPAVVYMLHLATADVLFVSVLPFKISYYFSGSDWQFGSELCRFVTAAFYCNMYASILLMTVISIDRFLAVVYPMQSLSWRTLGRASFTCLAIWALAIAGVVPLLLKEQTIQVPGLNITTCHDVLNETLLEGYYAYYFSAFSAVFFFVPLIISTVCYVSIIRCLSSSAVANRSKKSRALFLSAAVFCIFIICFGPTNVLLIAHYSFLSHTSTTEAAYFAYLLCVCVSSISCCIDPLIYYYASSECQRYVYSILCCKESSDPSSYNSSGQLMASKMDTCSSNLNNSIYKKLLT
Assay: Negative allosteric modulation of PAR1 in human EAhy926 cells assessed as reduction in TFLLRN-NH2-induced intracellular calcium mobilization at 10 uM incubated for 15 mins followed by TFLLRN-NH2 addition by Fluo-4-AM dye based fluorescence assay relative to control
Format: functional, cell-based

>  <structure smiles>
CC(C)CC(=O)Nc1cccc(NC(=O)c2ccccc2Br)c1

>  <target entity>
Proteinase-activated receptor 1 (Homo sapiens) (UniProt P25116)

>  <units label>
%

>  <inhibition>
82

$$$$
>  <structure smiles>
O=C(Nc1cccc(NC(=O)C2CCCC2)c1)c1ccccc1Br

>  <target entity>
Proteinase-activated receptor 1 (Homo sapiens) (UniProt P25116)

>  <units label>
%

>  <inhibition>
65

$$$$
>  <structure smiles>
O=C(Nc1cccc(NC(=O)c2ccccc2Br)c1)c1cocn1

>  <target entity>
Proteinase-activated receptor 1 (Homo sapiens) (UniProt P25116)

>  <units label>
%

>  <inhibition>
82

$$$$
